# TEST_SUMMARY: Cytotoxicity counterscreen for inhibitors of SARS-CoV-2 cell entry (AID 1645845); further: nearly all actives have a fitted effect of over 50% in size
# STATED_CONDITIONS: cell viability (SARS-CoV-2 entry assay cells); series mostly up to 57.1 µM
Records with an inconclusive call do not appear. Activity calls are given as the source filed them. The call rests on the fitted dose curve.
Assign a class; possible classes are active, inactive

Consider the following illustrative entries.
Problem: For this molecule, state the assay outcome: CC(C)Oc1ccc2c(=O)c(-c3ccccc3)coc2c1
Solution: inactive

Problem: For this molecule, state the assay outcome: COc1c(C)c2c(c(O)c1C/C=C(\C)CCC(=O)O)C(=O)OC2
Solution: inactive

Problem: For this molecule, state the assay outcome: CNCC(O)c1ccc(O)cc1 (centres undefined)
Solution: inactive

Problem: For this molecule, state the assay outcome: COc1cc(NC(C)CCCN)c2ncccc2c1 (centres undefined)
Solution: inactive

Problem: For this molecule, state the assay outcome: CNCC[C@@H](Oc1ccccc1C)c1ccccc1
Solution: inactive

More entries:
Problem: For this molecule, state the assay outcome: c1cnc2cc3c(cc2n1)C1CNCC3C1
Solution: inactive

Problem: For this molecule, state the assay outcome: Cc1cn[nH]c1
Solution: inactive

Problem: For this molecule, state the assay outcome: CCN(CC)CCOC(=O)C1(C2CCCCC2)CCCCC1
Solution: inactive

Problem: For this molecule, state the assay outcome: CC1(CN2CCC(n3c(=O)[nH]c4ccccc43)CC2)OCc2ccccc2-n2cccc21 (centres undefined)
Solution: inactive

Problem: For this molecule, state the assay outcome: C[C@H]1c2cccc(O)c2C(O)=C2C(=O)[C@]3(O)C(O)=C(C(N)=O)C(=O)[C@@H](N(C)C)[C@@H]3[C@@H](O)[C@@H]21
Solution: inactive

Problem: For this molecule, state the assay outcome: CN1C(CCl)Nc2cc(Cl)c(S(N)(=O)=O)cc2S1(=O)=O (centres undefined)
Solution: inactive

Problem: For this molecule, state the assay outcome: Oc1cccc2cccnc12
Solution: inactive

Problem: For this molecule, state the assay outcome: Cc1oncc1C(=O)Nc1ccc(C(F)(F)F)cc1
Solution: active

Problem: For this molecule, state the assay outcome: CC(C)NCC(O)COc1ccc(CCOCC2CC2)cc1 (centres undefined)
Solution: inactive

Problem: For this molecule, state the assay outcome: N=C(N)c1ccc(OCCCCCOc2ccc(C(=N)N)cc2)cc1
Solution: inactive

Problem: For this molecule, state the assay outcome: CCN(CC)CCNC(=O)c1cc(Cl)c(N)cc1OC
Solution: inactive

Problem: For this molecule, state the assay outcome: CC(C)Nc1cccnc1N1CCN(C(=O)c2cc3cc(NS(C)(=O)=O)ccc3[nH]2)CC1
Solution: inactive

Problem: For this molecule, state the assay outcome: CCOC(=O)Nc1ccc2c(c1)N(C(=O)CCN1CCOCC1)c1ccccc1S2
Solution: inactive

Problem: For this molecule, state the assay outcome: CC(=O)OCC(CCn1cnc2cnc(N)nc21)COC(C)=O
Solution: inactive

---

# ASSAYED_TARGET: Nucleoprotein (Lymphocytic choriomeningitis virus (strain Armstrong))
# TEST_SUMMARY: qHTS for Inhibitors of the Functional Ribonucleoprotein Complex (vRNP) of Lymphocytic Choriomeningitis Arenaviruses (LCMV): LCMV Primary Screen - GLuc reporter signal (AID 1347086); further: nearly all actives have a fitted effect of over 70% in size
# STATED_CONDITIONS: LCMV minigenome vRNP cell assay, Gaussia luciferase reporter; series mostly up to 57.5 µM
Results filed as inconclusive are left out. The source made the active and inactive calls. Calls follow the shape of the full dose curve.
Assign a class; possible classes are active, inactive

Problem: For this compound, state the assay outcome: Cc1nc(Nc2ncc(C(=O)Nc3c(C)cccc3Cl)s2)cc(N2CCN(CCO)CC2)n1
Solution: inactive

Problem: For this compound, state the assay outcome: CC(C)(C(=O)O)c1ccc(C(O)CCCN2CCC(C(O)(c3ccccc3)c3ccccc3)CC2)cc1 (stereo not drawn)
Solution: inactive

Problem: For this compound, state the assay outcome: CCCN1C[C@H](CSC)C[C@@H]2c3cccc4[nH]cc(c34)C[C@H]21
Solution: inactive

---

# ASSAYED_TARGET: Cytochrome P450 3A4 (Homo sapiens)
# TEST_SUMMARY: qHTS Assay for Activators of Cytochrome P450 3A4 (AID 885); further: nearly all actives have a fitted effect of over 65% in size
# STATED_CONDITIONS: recombinant CYP3A4, Luciferin-PPXE luminescence, 60 min; series mostly up to 57.1 µM
The source made the active and inactive calls. Calls follow the shape of the dose curve; as a rule, active = well fitted activation curve with a large enough effect; inconclusive = small, poorly fitted or top-dose-only effect; inactive = no such curve, though single readings can be large or run the other way.
MEASUREMENT_NAME: outcome

Problem: outcome for Clc1cccc(N2CCNCC2)c1 ?
Solution: inactive

Problem: outcome for CCC1C(=O)OCC1Cc1cncn1C (stereo unspecified) ?
Solution: inactive

Problem: outcome for N[C@@H](Cc1ccc(N(CCCl)CCCl)cc1)C(=O)O ?
Solution: inactive

Problem: outcome for CC(C)(C)NCC(O)c1cc(Cl)c(N)c(Cl)c1 (stereo unspecified) ?
Solution: inactive

Problem: outcome for CCCC(C)(COC(N)=O)COC(=O)NC(C)C (stereo unspecified) ?
Solution: inactive

More entries:
Problem: outcome for Clc1ccc(COC(Cn2ccnc2)c2ccc(Cl)cc2Cl)cc1 (stereo unspecified) ?
Solution: inactive

---

# TEST_SUMMARY: Quantitative High-Throughput drug screen in 47 multiple myeloma cell lines against the NCATS MIPE library collection: NCIH929_DSMZ cell viability assay (AID 1918978); further: nearly all actives have a fitted effect of over 35% in size
# STATED_CONDITIONS: NCI-H929 myeloma viability, CellTiter-Glo ATP, 48 h; series mostly up to 45.8 µM
Results filed as inconclusive are left out. The source made the active and inactive calls. Calls follow the shape of the dose curve; as a rule, active = well fitted cell-killing curve with a large enough effect; inconclusive = small, poorly fitted or top-dose-only effect; inactive = no such curve, though single readings can be large or run the other way.
Assign a class; possible classes are T for active, F for inactive

Problem: For this compound, state the assay outcome: CNCC(O)c1ccc(O)cc1 (stereo not drawn)
Solution: F

Problem: For this compound, state the assay outcome: COC[C@@H](NC(C)=O)C(=O)NCc1ccccc1
Solution: F

Problem: For this compound, state the assay outcome: CC(O)(CS(=O)(=O)c1ccc(F)cc1)C(=O)Nc1ccc(C#N)c(C(F)(F)F)c1 (stereo not drawn)
Solution: T

Problem: For this compound, state the assay outcome: CC(C)CC(N(C)C)C1(c2ccc(Cl)cc2)CCC1 (stereo not drawn)
Solution: F

Problem: For this compound, state the assay outcome: Cc1cccc(C)c1NC(=O)CN1CCCC1=O
Solution: F

More entries:
Problem: For this compound, state the assay outcome: COC1(CS(=O)c2ccccc2)CCN(CCc2c[nH]c3ccc(F)cc23)CC1 (stereo not drawn)
Solution: F

Problem: For this compound, state the assay outcome: COc1ccc2c(c1OC)CN1CCc3cc4c(cc3C1C2)OCO4 (stereo not drawn)
Solution: F

Problem: For this compound, state the assay outcome: COc1ccc(C(CN(C)C)C2(O)CCCCC2)cc1 (stereo not drawn)
Solution: F

Problem: For this compound, state the assay outcome: CN(C)CCN(C)CCc1ccc(Cl)c(Cl)c1
Solution: F

---

# TEST_SUMMARY: Cytotoxicity counterscreen for inhibitors of SARS-CoV-2 cell entry (AID 1645845); further: nearly all actives have a fitted effect of over 50% in size
# STATED_CONDITIONS: cell viability (SARS-CoV-2 entry assay cells); series mostly up to 57.1 µM
Records with an inconclusive call do not appear. Calls of active or inactive are those of the source. Calls follow the shape of the full dose curve.
Assign a class; possible classes are active, inactive

Consider the following illustrative entries.
Problem: For this molecule, state the assay outcome: CC(C)[N+](C)(CCOC(=O)C1c2ccccc2Oc2ccccc21)C(C)C
Solution: inactive

Problem: For this molecule, state the assay outcome: Cn1c(CCCC(=O)O)nc2cc(N(CCCl)CCCl)ccc21
Solution: inactive

Problem: For this molecule, state the assay outcome: CCCN[C@H]1CCc2nc(N)sc2C1
Solution: inactive

Problem: For this molecule, state the assay outcome: CC[C@@]1(c2ccccc2)NC(=O)N(C)C1=O
Solution: inactive

Problem: For this molecule, state the assay outcome: CC(C)c1nc(CN(C)C(=O)N[C@H](C(=O)N[C@@H](Cc2ccccc2)C[C@H](O)[C@H](Cc2ccccc2)NC(=O)OCc2cncs2)C(C)C)cs1
Solution: inactive

More entries:
Problem: For this molecule, state the assay outcome: OCCOCCN1CCN(C(c2ccccc2)c2ccc(Cl)cc2)CC1 (stereo unspecified)
Solution: inactive

Problem: For this molecule, state the assay outcome: CCCc1cc(=O)[nH]c(=S)[nH]1
Solution: inactive

Problem: For this molecule, state the assay outcome: CC(C)c1c(C(=O)Nc2ccccc2)c(-c2ccccc2)c(-c2ccc(F)cc2)n1CC[C@@H](O)C[C@@H](O)CC(=O)O
Solution: inactive

Problem: For this molecule, state the assay outcome: Cc1cccc(Nc2ccncc2S(=O)(=O)NC(=O)NC(C)C)c1
Solution: inactive

Problem: For this molecule, state the assay outcome: CC(=O)N(O)CCCCCNC(=O)CCC(=O)N(O)CCCCCNC(=O)CCC(=O)N(O)CCCCCN
Solution: active

Problem: For this molecule, state the assay outcome: COc1ccccc1Oc1c(NS(=O)(=O)c2ccc(C(C)(C)C)cc2)nc(-c2ncccn2)nc1OCCO
Solution: inactive

Problem: For this molecule, state the assay outcome: CCCCNC(=O)NS(=O)(=O)c1ccc(C)cc1
Solution: inactive

Problem: For this molecule, state the assay outcome: CO/N=C(\C(=O)N[C@@H]1C(=O)N2C(C(=O)O)=C(CSc3nc(=O)c(O)nn3C)CS[C@H]12)c1csc(N)n1
Solution: inactive

Problem: For this molecule, state the assay outcome: CCCCC1=NC2(CCCC2)C(=O)N1Cc1ccc(-c2ccccc2-c2nn[nH]n2)cc1
Solution: inactive

Problem: For this molecule, state the assay outcome: N[C@@H](Cc1cc(I)c(Oc2cc(I)c(O)c(I)c2)c(I)c1)C(=O)O
Solution: inactive

Problem: For this molecule, state the assay outcome: CNC1(C)C2CCC(C2)C1(C)C (stereo unspecified)
Solution: inactive

Problem: For this molecule, state the assay outcome: CN(C)CCOC(C)(c1ccccc1)c1ccccn1 (stereo unspecified)
Solution: inactive

Problem: For this molecule, state the assay outcome: CC1(C)S[C@@H]2[C@H](NC(=O)[C@H](N)c3ccccc3)C(=O)N2[C@H]1C(=O)O
Solution: inactive

Problem: For this molecule, state the assay outcome: COC(=O)CCc1ccc(OCC(O)CNC(C)C)cc1 (stereo unspecified)
Solution: inactive

Problem: For this molecule, state the assay outcome: CNC(=O)c1ccc(N2C(=S)N(c3ccc(C#N)c(C(F)(F)F)c3)C(=O)C23CCC3)cc1F
Solution: inactive

Problem: For this molecule, state the assay outcome: CC(=O)N[C@@H](CS)C(=O)O
Solution: inactive

Data origin: PubChem BioAssay (NCATS)
